- method summary: qHTS assay to identify small molecule antagonists of the thyroid receptor (TR) signaling pathway - cell viability counter screen (AID 743064); also: nearly all actives have a fitted effect of over 50% in size
- settings: GH3.TRE-Luc viability, CellTiter-Fluor, 24 h; series mostly up to 70.3 µM
- From the text: National Center for Advancing Translational Sciences [NCATS] NIH Chemical Genomics Center [NCGC] U.S. Environmental Protection Agency [EPA] National Institutes of Environmental Health Sciences [NIEHS] National Toxicology Program [NTP] U.S. Food and Drug Administration [FDA] Thyroid receptor (TR), a nuclear hormone receptor, plays an important role in development, proliferation, differentiation, metabolism, brain function, and cardiovascular system. […]
Results filed as inconclusive are left out. Activity calls are given as the source filed them. Calls follow the shape of the dose curve; as a rule, active = well fitted cell-killing curve with a large enough effect in the repeat runs; inconclusive = weak or mixed curves, or effect the other way; inactive = no such curve, though single readings can be large or run the other way.
Classes used: 1 for active, 0 for inactive

| compound | category |
| --- | --- |
| C[C@](N)(Cc1ccc(O)c(O)c1)C(=O)O | 0 |
| O=C1c2c(O)cccc2Cc2cccc(O)c21 | 0 |
| F[B-](F)(F)F | 0 |
| CCc1nc(N)nc(N)c1-c1ccc(Cl)cc1 | 1 |
| CC(=O)CC(c1ccccc1)c1c(O)c2ccccc2oc1=O (centres undefined) | 0 |
| CCOc1ccc(NC(C)=O)cc1 | 0 |
| O=C(O)CC(O)C(=O)O (centres undefined) | 0 |
| CCCCOC(=O)c1ccc(O)cc1 | 0 |
| CC(C)C(=O)Nc1ccc([N+](=O)[O-])c(C(F)(F)F)c1 | 0 |
| CCN(CC)C(=O)c1cccc(C)c1 | 0 |
| CN1CCC[C@H]1c1cccnc1 | 0 |
| COc1ccc2c(c1)c(CC(=O)O)c(C)n2C(=O)c1ccc(Cl)cc1 | 0 |
| C=C(C)C(=O)OCC(C)O (centres undefined) | 0 |
| NS(=O)(=O)O | 0 |

---

- system name: Nuclear receptor subfamily 1 group I member 2 (Rattus norvegicus) (UniProt Q9R1A7)
- Sequence (Q9R1A7 whole entry, looked up): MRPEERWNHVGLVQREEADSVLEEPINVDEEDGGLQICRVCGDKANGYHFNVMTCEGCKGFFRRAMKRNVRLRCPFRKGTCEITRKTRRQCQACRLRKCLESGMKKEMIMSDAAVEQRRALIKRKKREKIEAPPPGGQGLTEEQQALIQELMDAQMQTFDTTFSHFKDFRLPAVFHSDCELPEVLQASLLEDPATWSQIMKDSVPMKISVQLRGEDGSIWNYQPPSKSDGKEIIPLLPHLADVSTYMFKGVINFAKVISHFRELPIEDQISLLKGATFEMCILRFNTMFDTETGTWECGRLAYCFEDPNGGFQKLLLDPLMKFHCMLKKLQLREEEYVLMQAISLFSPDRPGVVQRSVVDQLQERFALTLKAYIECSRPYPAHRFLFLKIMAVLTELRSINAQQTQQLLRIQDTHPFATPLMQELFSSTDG
- method summary: Rat pregnane X receptor (rPXR) activation by small molecules, qHTS assay (AID 1346983); also: % is scaled to controls: 0 for no effect and ±100 for the full control effect; nearly all actives have a fitted effect of over 20% in size
- settings: rPXR luciferase reporter cells, One-Glo luminescence, 24 h; active compounds read high
Results filed as inconclusive are left out.
max activation by entry:

| molecule | system name | readout unit | max activation |
| --- | --- | --- | --- |
| CN[C@H]1CC[C@@H](c2ccc(Cl)c(Cl)c2)c2ccccc21 | Nuclear receptor subfamily 1 group I member 2 (Rattus norvegicus) (UniProt Q9R1A7) | % | 8.99 |
| CNNCc1ccc(C(=O)NC(C)C)cc1 | Nuclear receptor subfamily 1 group I member 2 (Rattus norvegicus) (UniProt Q9R1A7) | % | -1.77 |
| C[C@](N)(Cc1ccc(O)c(O)c1)C(=O)O | Nuclear receptor subfamily 1 group I member 2 (Rattus norvegicus) (UniProt Q9R1A7) | % | -6.56 |
| CCCc1cc(=O)[nH]c(=S)[nH]1 | Nuclear receptor subfamily 1 group I member 2 (Rattus norvegicus) (UniProt Q9R1A7) | % | -3.01 |
| CC12CCC(CC1)C(C)(C)O2 | Nuclear receptor subfamily 1 group I member 2 (Rattus norvegicus) (UniProt Q9R1A7) | % | -0.857 |
| CN(C)C(=S)SC(=S)N(C)C | Nuclear receptor subfamily 1 group I member 2 (Rattus norvegicus) (UniProt Q9R1A7) | % | -4.94 |
| C1CCC(C(CC2CCCCN2)C2CCCCC2)CC1 (configuration not stated) | Nuclear receptor subfamily 1 group I member 2 (Rattus norvegicus) (UniProt Q9R1A7) | % | -20.4 |
| Cc1c(C(=O)O)c(O)cc2c1C(=O)c1c(O)c([C@@H]3O[C@H](CO)[C@@H](O)[C@H](O)[C@H]3O)c(O)c(O)c1C2=O | Nuclear receptor subfamily 1 group I member 2 (Rattus norvegicus) (UniProt Q9R1A7) | % | -3.66 |
| C=C1CC[C@H](O)C/C1=C\C=C1/CCC[C@]2(C)[C@@H]([C@H](C)CCCC(C)C)CC[C@@H]12 | Nuclear receptor subfamily 1 group I member 2 (Rattus norvegicus) (UniProt Q9R1A7) | % | 1.13 |
| CCCCCCCCCCCCCCCC[N+](C)(C)Cc1ccccc1 | Nuclear receptor subfamily 1 group I member 2 (Rattus norvegicus) (UniProt Q9R1A7) | % | -17.4 |
| CS(=O)(=O)OCCCCOS(C)(=O)=O | Nuclear receptor subfamily 1 group I member 2 (Rattus norvegicus) (UniProt Q9R1A7) | % | -4.1 |
| C/C=C/C=C/C(=O)O | Nuclear receptor subfamily 1 group I member 2 (Rattus norvegicus) (UniProt Q9R1A7) | % | 0.352 |
